test_protocol: in vivo
run_parameters: zebrafish, in vivo, LC50, mortality after 48 h of exposure; S2 Fig, unit inferred
measure_name: LC50 (µM)
Numbers only, in µM.

Incoming: Consider the compound shown here: Nc1ccc(Cl)c(Cl)c1 What is its recorded LC50?
Outgoing: 319

----------
test_protocol: in vivo
run_parameters: zebrafish, in vivo, LC50 (48–120 hpf), mortality, embryos exposed 48–120 hpf
Procedure: Fish embryo acute toxicity tests were performed similar as described previously, using 10 or 25 embryos per concentration and replicate exposed in crystallization dishes from 48 to 120 hpf. No exchange of exposure media was performed. Lethality was identified by coagulation, missing heartbeat, a non–detached tail and/or missing of somites. Raw data for mortality and phenotypic assessment are provided as S1 Table. Concentration-response curves for mortality are shown in S2 Fig.
Consider the following molecules; for each one, report its LC50.
Numbers only, in µM.

[
  {
    "smiles_text": "Nc1ccc(Cl)c(Cl)c1",
    "value_unit": "µM",
    "LC50": 29.4
  }
]

Attention now shifts to the item below.
Incoming: Query (molecule): Oc1cccc(O)c1 ; field requested: LC50
Outgoing: 5200

----------
System: zebrafish embryos
test_protocol: in vivo
run_parameters: mortality after 72 h of exposure; S2 Fig, unit inferred
Experimental: Fish embryo acute toxicity tests were performed similar as described previously, using 10 or 25 embryos per concentration and replicate exposed in crystallization dishes from 48 to 120 hpf. No exchange of exposure media was performed. Lethality was identified by coagulation, missing heartbeat, a non–detached tail and/or missing of somites. Raw data for mortality and phenotypic assessment are provided as S1 Table. Concentration-response curves for mortality are shown in S2 Fig.
measure_name: LC50 (mM)
Answers are plain numbers, in mM.

Incoming: Which measured LC50 value corresponds to [K+].[O-][Cl+3]([O-])([O-])[O-] [Potassium perchlorate, potassium perchlorate] ?
Outgoing: 33.1

----------
Tested on: zebrafish embryos
test_protocol: in vivo
run_parameters: mortality after 24 h of exposure; S2 Fig, unit inferred
measure_name: LC50 (mM)
One number for each entry, in mM.

Incoming: # LC50 lookup, item c1cn[nH]c1 [Pyrazole, pyrazole]
Outgoing: 48.9

----------
System: zebrafish embryos
test_protocol: in vivo
run_parameters: mortality concentration-response curve, 72 h of exposure
measure_name: Slope
Answers are plain numbers.

[
  {
    "compound": "c1cn[nH]c1 [Pyrazole, pyrazole]",
    "Slope": 132
  },
  {
    "compound": "Oc1cccc(O)c1 [Resorcinol, resorcinol]",
    "Slope": 21.9
  },
  {
    "compound": "Nc1ccc(Cl)c(Cl)c1 [3,4-DCA, 3,4-dichloroaniline]",
    "Slope": 1.53
  }
]

We now examine a further compound.
Incoming: I am curious: what Slope value has been reported for [K+].[O-][Cl+3]([O-])([O-])[O-] [Potassium perchlorate, potassium perchlorate] ?
Outgoing: 0.944

----------
System: zebrafish embryos
test_protocol: in vivo
run_parameters: mortality after 48 h of exposure; S2 Fig, unit inferred
measure_name: LC50 (mM)
One number for each entry, in mM.

[
  {
    "compound": "c1cn[nH]c1",
    "measure_name": "LC50",
    "observed_result": 48.9
  }
]

Pending compound:
Incoming: Reported LC50, compound [K+].[O-][Cl+3]([O-])([O-])[O-] [Potassium perchlorate, potassium perchlorate] : ____
Outgoing: 50.3
